# Test system: NCI-H322M lung
# assayNotes: NCI-60 one-dose screen, 48 h (100 = growth as untreated, 0 = no growth, -100 = all killed)
# measurementSetup: 10 µM unless noted
Compounds without any hit were thinned out: in the full panel of roughly 83,000, 20% have a hit.
Parameter growth: see the listing below.
propertyName: growth (%)

O=C(/C=C/c1ccc(Cl)cc1)c1cccc(Nc2nc(Nc3ccccc3)nc(Nc3ccccc3)n2)c1 : 94.6
CC1(C)CC[C@]2(C(=O)O)CC[C@]3(C)C(=CC[C@@H]4[C@@]5(C)C/C(=C/O)C(=O)C(C)(C)[C@@H]5CC[C@]43C)[C@@H]2C1 : 62.2
COc1cc(OC)cc(C2=C3CC[C@@H]4[C@H](CC[C@]5(C)C(=O)CC[C@@H]45)C3=CC3C(O)c4cccnc4N4C(=O)COC234)c1 (some centres undefined) : 114
Cc1ccc(NC(=S)NNC(=S)NNc2ccccc2)cc1C : 85.5
CCN(CC)c1ccc(/C=C/C(=O)c2ccc(Nc3nc(Nc4ccccc4)nc(Nc4ccccc4)n3)cc2)cc1 : 62.4
Clc1ccc(Sc2cnc(-c3ccccc3)o2)cc1 : 91.9
CCOC(=O)c1cc2c(=O)oc3ccccc3c2oc1=O : 100
CCCCC[C@@H]1Cc2cc(O)c(C(=O)O)c3c2[C@H](C[C@]2(OC[C@@H](CC(=O)[C@@](C)(CC)C(=O)OC)[C@@H]2C)O3)O1 : 105
Cc1ccc(-c2nn(-c3ccccc3)cc2C=C2C(=O)ON=C2C(C)C)cc1 : 91.2

----------
# Tested on: HOP-92 NSCLC
# assayNotes: NCI-60 one-dose screen, 48 h (100 = growth as untreated, 0 = no growth, -100 = all killed)
# measurementSetup: 10 µM unless noted
About 83,000 compounds went through this panel and 20% of them were active in at least one assay; those are over-represented in the sample as a whole. Active and inactive are the calls of the source. The calls were made as follows: active = growth percent below 10; inactive = the rest.
Parameter growth: see the listing below.
propertyName: growth

O=C(CSc1nc2ccc([N+](=O)[O-])cc2[nH]1)Nc1ccc(F)cc1 : -6.84% (active)
Cc1cc2c(O)c(-c3cc(Cl)ccc3Cl)c3sc(=O)oc3c2cc1C : -15.5% (active)
Cc1ccc(-c2cc(-c3ccc(Cl)cc3)nc(NC(=O)c3cccnc3)n2)cc1 : 117% (inactive)
O=C(CCc1nnc(Cn2cnc3nc[nH]c3c2=O)o1)c1nc2ncccc2[nH]1 : 104% (inactive)
Cc1ccc(-c2nc(/C=C3/C(=O)Nc4ccccc43)c3ccccn23)cc1 : 105% (inactive)
O=C(Cn1c(-c2ccc([N+](=O)[O-])cc2)nc2ccccc21)NNC(=O)c1cccnc1 : 38% (inactive)
Fc1ccc(-c2nn(-c3ccccc3)cc2-c2nc3ccccc3o2)cc1 : 91.2% (inactive)
Cc1cc2c([nH]1)CSc1cc(S(=O)(=O)c3ccccc3)c(=O)[nH]c1-2 : 16.3% [100 µM] (inactive)
C/C(=C(/c1ccc(Cl)cc1)c1ccc(OCCN2CCCC2)cc1)c1ccc(Cl)cc1 : 69.5% (inactive)
COc1ccc(OC)c(-c2c(C#N)c(-c3cccs3)nc3c2c(-c2ccccc2)nn3-c2ccccc2)c1 : 106% (inactive)

----------
# Tested on: SW-620 colon
# assayNotes: NCI-60 one-dose screen, 48 h (100 = growth as untreated, 0 = no growth, -100 = all killed)
# measurementSetup: 10 µM unless noted
Compounds without any hit were thinned out: in the full panel of roughly 83,000, 20% have a hit.
Think of 80% as a floor: if growth stands on it or above, it is satisfied; beneath it, not satisfied.

O=c1oc2ccccc2cc1C1=NN=C(SCc2ccccc2)SC1 : satisfied
N#Cc1cnc(NCCc2ccncc2)nc1-n1cnc2ccccc21 : not satisfied
S=C1CCSC(=S)N1CCCN1C(=S)CCSC1=S : not satisfied
CC(C)CCNC(=O)Cn1cccc(NC(=O)OCc2ccccc2)c1=O : satisfied
C=C(C)[C@@H]1CC[C@]2(C(=O)OC)CC[C@]3(C)[C@H](CC[C@@H]4[C@@]5(C)C/C(=C/NC(N)=S)C(=O)C(C)(C)[C@@H]5CC[C@]43C)[C@@H]12 : satisfied
C=C(C)[C@@H]1CC[C@]2(C(=O)O)CC[C@]3(C)[C@H](CC[C@@H]4[C@@]5(C)C[C@@H](Cc6cn(CCO[C@@H]7O[C@H](COC(C)=O)[C@H](OC(C)=O)[C@H](OC(C)=O)[C@H]7OC(C)=O)nn6)[C@H](O)C(C)(C)[C@@H]5CC[C@]43C)[C@@H]12 : not satisfied
Cc1ccc(C2=Nc3c(N)ncnc3NC(c3ccc4c(c3)OCO4)C2)cc1 (configuration not stated) : not satisfied
Oc1c(Cl)cc(Cl)c2ccc(Cn3cc(-c4ccc(C(F)(F)F)cc4)nn3)nc12 : not satisfied
COc1ccc(/C=N/C2=C(C#N)C(c3cccc(Cl)c3)c3c(ccc4ccccc34)O2)cc1 (configuration not stated) : not satisfied
CC[C@@H](C(=O)[C@@H](C)[C@@H](O)[C@H](C)[C@@H]1O[C@@H]([C@@H](CC)C(=O)NCCc2ccc(F)cc2)CC[C@@H]1C)C1O[C@]2(C=CC(=O)[C@]3(CC[C@@](C)([C@H]4CC[C@](O)(CC)[C@H](C)O4)O3)O2)[C@H](C)C[C@@H]1C (some centres not stated) : not satisfied
CN(C)CCNc1nc2c3cc(Cl)ccc3nn2c2ccccc12 : not satisfied
COc1ccc2cc(-c3ccc(NC(C)=O)c(=O)o3)ccc2c1 : satisfied
C#Cc1cccc(Nc2ncnc3ccc(-c4cncc(NS(C)(=O)=O)c4)cc23)c1 : not satisfied
Cc1cccc(Cl)c1NC(=O)c1ccc2nc(NC(=O)NCCN(C)C)sc2c1 : satisfied
Cc1ccc(-c2nc3nc(-c4ccccc4)nc(N4CCNCC4)c3o2)cc1 : not satisfied
COc1ccc2c(O)c(/C=C3\N=Nc4ccccc43)oc2c1C[C@@H]1CCNC[C@H]1F : not satisfied

----------
# Tested on: TK-10 renal
# assayNotes: NCI-60 one-dose screen, 48 h (100 = growth as untreated, 0 = no growth, -100 = all killed)
# measurementSetup: 10 µM unless noted
Compounds without any hit were thinned out: in the full panel of roughly 83,000, 20% have a hit.
propertyName: growth (%)

O=C(O)[C@@H]1c2ccccc2-c2ccccc2[C@H]1C(=O)O : 105
COc1ccc(C(c2cc(OC)c(OC)c(OC)c2)N2CCN(c3ccccc3)CC2)cc1 (stereo not drawn) : 106
CN(C)Cc1ccc(NC(=O)c2cncc(C#Cc3cnc(N)c4ncccc34)c2)cc1F : 141
Cc1ccc(Cc2cnc(NC(=O)c3cc(Br)cs3)s2)cc1 : 78.1
COC(=O)/C(CCC=C(C)C)=C1\[C@@H](OC(C)=O)C[C@@]2(C)[C@H]1C[C@@H](O)[C@H]1[C@@]3(C)CC[C@H](NCCN)[C@@H](C)[C@@H]3CC[C@@]12C : 101
CCOC(=O)c1[nH]c(=O)c2c(C)nc(-c3ccccc3)cc2c1O : 178
CCNc1nc(-c2ccc(Cl)c(OC)c2)c(-c2ccnc(NCCCNS(=O)(=O)c3ccc(Cl)cc3)n2)s1 : 43.7
CC(C)(C)n1cc(-c2ccnc(NCCNS(=O)(=O)c3cccc4ccccc34)c2)c(-c2cccc(F)c2)n1 : -80
C#CCOc1ccc2ncnc(Nc3ccc(NC(=O)CCl)cc3)c2c1 : 1.64
CCO/C=N/C1=C(C#N)C(c2ccc(OC)cc2)c2sc3c(F)cccc3c2O1 (stereo not drawn) : 51.8
O=C1/C(=C/c2ccccc2Br)COc2ccc(O)c(O)c21 : 29.5
O=C(Cn1cc(CN2CCCCCC2)nn1)Nc1ccc2c(ccn2Cc2ccccc2)c1 : 92.2
O=C(CI)NC1Oc2ccccc2-c2oc(=O)c(-c3ccccc3)cc21 (stereo not drawn) : -73.5
Cc1nc2ncnc(Cl)c2[nH]1 : 94.4
COCCNC(=O)c1ccc(-c2nc3ccc4[nH]ncc4c3c3c2CCCC3)cc1 : 38.9
Cc1ccc(-c2cc(-c3ccc(Cl)cc3)nc(NC(=O)c3cccnc3)n2)cc1 : 115
N=C(N)c1ccc(-c2ccc(-c3cc(Cl)cc(Cl)c3)o2)o1 : -76.3
C=C1C(=O)O[C@H]2[C@H]1CC/C(COC(=O)NCc1ccc(Cn3c(=O)sn(CCI)c3=O)cc1)=C\CC[C@@]1(C)O[C@@H]21 : 0.429
N#CCSc1nnc2n(Cc3ccccc3)c(=O)c3c4c(sc3n12)CCCC4 : 103
CC(=O)Nc1nc2ccc(NS(=O)(=O)c3cccc4c(N(C)C)cccc34)cc2[nH]1 : 102
CCCCC(=O)Nc1ncc(Cc2ccc(Cl)cc2)s1 : 84.8
C=C(C)[C@@H]1CC[C@]2(C(=O)OC)CC[C@]3(C)[C@H](CC[C@@H]4[C@@]5(C)C/C(=C/NC(N)=S)C(=O)C(C)(C)[C@@H]5CC[C@]43C)[C@@H]12 : 111
N#Cc1c(-c2ccc(Cl)cc2)nc(SCC(=O)NC2=NN=C(c3ccccc3)CS2)[nH]c1=O : 119
C#Cc1ccc(NC(=O)c2ccc(/C=C/C(=O)c3nccn3C)cc2)cc1 : -2.59
CN(C)CCCn1c2c(c3ncccc3c1=O)C(=O)c1ccccc1-2 : 52.3
O=C(/C=C/c1ccccc1)c1cccc(OCCCOc2cccc(C(=O)/C=C/c3ccccc3)c2)c1 : 107
O=C1NC(=O)c2c1c1c3ccccc3ccc1c1[nH]c3ccc(Br)cc3c21 : 36.8
O=C(CCC(=O)N/N=C/c1ccccc1O)N/N=C/c1ccccc1O : 44
CCN(CC)CCSc1nc(-c2ccccc2)c(C#N)c(=O)[nH]1 : 128
CC1(C)c2[nH]c3ccccc3c2C[C@]2(C)[C@H]3CC=C4[C@@H]5C[C@@](C)(C(N)=O)CC[C@]5(C)CC[C@@]4(C)[C@]3(C)CC[C@@H]12 : 84.2
c1ccc(C2=NN[C@H](c3cn(-c4ccccc4)nc3-c3ccccc3)C2)cc1 : 17.9
Cc1ccc2c3c(c(=O)[nH]c2c1)C1(C(C#N)=C(N)O3)c2cc(Br)ccc2-c2ccc(Br)cc21 : -36.2
C#CCOc1cccc(Nc2ncnc3ccc(NC(=O)CCl)cc23)c1 : -60.8
O=C(Nc1ncc(Cc2ccc(Cl)c(C(F)(F)F)c2)s1)c1ccc2nnsc2c1 : 48.3
O=S(=O)(Nc1cc(Br)c(O)c2ccccc12)c1ccc(F)cc1 : 123
Cc1ccc2c(n1)C(=O)c1[nH]c3ccccc3c1C2=O : 115
O=C(CSc1nc(-c2ccccc2)[nH]c1S(=O)(=O)c1ccccc1)NC1CC1 : 87.2
COc1cccc([C@H]2c3[nH]c4ccccc4c3C[C@H]3C(=O)N(CCCCCCC(=O)NO)CC(=O)N23)c1 : 87.6
